# TARGET_OF_ASSAY: PTP1B (Homo sapiens, UniProt P18031)
# Sequence (P18031 1-435): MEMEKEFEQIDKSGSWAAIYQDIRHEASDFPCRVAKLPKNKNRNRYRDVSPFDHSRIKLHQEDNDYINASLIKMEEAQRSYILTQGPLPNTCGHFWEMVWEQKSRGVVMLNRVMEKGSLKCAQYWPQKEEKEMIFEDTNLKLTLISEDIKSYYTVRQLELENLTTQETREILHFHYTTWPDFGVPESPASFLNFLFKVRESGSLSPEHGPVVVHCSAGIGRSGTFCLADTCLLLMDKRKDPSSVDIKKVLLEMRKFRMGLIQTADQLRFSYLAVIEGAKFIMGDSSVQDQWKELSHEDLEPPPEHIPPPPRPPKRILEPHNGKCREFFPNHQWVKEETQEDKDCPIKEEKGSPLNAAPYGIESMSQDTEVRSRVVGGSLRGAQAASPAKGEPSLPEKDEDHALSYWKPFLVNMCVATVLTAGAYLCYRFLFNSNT
pIC50: −log10 of the molar value.
ASSAY_READOUT: pIC50

| SMILES_TEXT | VALUE_REPORTED |
| --- | --- |
| C=C(C)[C@@H]1CC[C@]2(C(=O)O)CC[C@]3(C)[C@H](CC[C@@H]4[C@@]5(C)CC[C@H](O)C(C)(C)[C@@H]5CC[C@]43C)[C@@H]12 | 5.48 |
